target: Melanocortin receptor 4 (Homo sapiens); assay: Agonist activity at human MC4R transfected in HEK293 cells; assay type: functional, cell-based
Sequence (P32245 whole entry): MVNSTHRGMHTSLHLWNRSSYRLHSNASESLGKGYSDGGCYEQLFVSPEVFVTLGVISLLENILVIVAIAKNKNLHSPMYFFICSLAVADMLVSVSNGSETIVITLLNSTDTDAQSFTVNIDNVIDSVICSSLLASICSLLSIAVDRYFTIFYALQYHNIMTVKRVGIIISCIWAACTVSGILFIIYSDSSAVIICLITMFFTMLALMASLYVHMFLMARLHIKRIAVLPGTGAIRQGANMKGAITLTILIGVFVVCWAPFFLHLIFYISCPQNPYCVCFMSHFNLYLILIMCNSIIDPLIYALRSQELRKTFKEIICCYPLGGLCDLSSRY

| smiles | EC50 (nM) |
| --- | --- |
| NC(N)=NCCC[C@H]1C[C@@H](OCc2ccc3ccccc3c2)CN1C(=O)[C@@H](Cc1ccccc1)NC(=O)CCc1ccccc1 | 266 |
| CC(=O)N[C@@H](Cc1ccc(O)cc1)C(=O)N[C@H](Cc1ccccc1)C(=O)N1C[C@H](OCc2ccc3ccccc3c2)C[C@@H]1C(=O)NCCN=C(N)N | 254 |
| CC(=O)N[C@@H](Cc1ccc(O)cc1)C(=O)N[C@H](Cc1ccccc1)C(=O)N1C[C@H](OCc2ccc3ccccc3c2)C[C@H]1CCCN=C(N)N | 20000 |
| NC(N)=NCCNC(=O)[C@H]1C[C@@H](OCc2ccc3ccccc3c2)CN1C(=O)[C@@H](Cc1ccccc1)NC(=O)C1CCNCC1 | 501 |
| CNC(=O)[C@H](Cc1ccc2ccccc2c1)NC(=O)[C@H](CCCN=C(N)N)NC(=O)[C@@H](Cc1ccccc1)NC(=O)[C@H](Cc1c[nH]cn1)NC(C)=O | 5.7 |
| NC(N)=NCCNC(=O)[C@H]1C[C@@H](OCc2ccc3ccccc3c2)CN1C(=O)[C@@H](Cc1ccccc1)NC(=O)[C@@H](N)Cc1c[nH]cn1 | 249 |
| CC(=O)N[C@@H](Cc1c[nH]cn1)C(=O)N[C@H](Cc1ccccc1)C(=O)N1C[C@H](OCc2ccc3ccccc3c2)C[C@H]1CCCN=C(N)N | 986 |
| CNC(=O)[C@H](Cc1ccc2ccccc2c1)NC(=O)[C@H](CCCN=C(N)N)NC(=O)[C@H](N)Cc1ccccc1 | 809 |
| NC(=O)C[C@H](N)C(=O)N[C@H](Cc1ccccc1)C(=O)N1C[C@H](OCc2ccc3ccccc3c2)C[C@H]1CCCN=C(N)N | 20000 |

----------
biological target: Melanocortin receptor 3 (Homo sapiens)
Sequence (P41968 whole entry): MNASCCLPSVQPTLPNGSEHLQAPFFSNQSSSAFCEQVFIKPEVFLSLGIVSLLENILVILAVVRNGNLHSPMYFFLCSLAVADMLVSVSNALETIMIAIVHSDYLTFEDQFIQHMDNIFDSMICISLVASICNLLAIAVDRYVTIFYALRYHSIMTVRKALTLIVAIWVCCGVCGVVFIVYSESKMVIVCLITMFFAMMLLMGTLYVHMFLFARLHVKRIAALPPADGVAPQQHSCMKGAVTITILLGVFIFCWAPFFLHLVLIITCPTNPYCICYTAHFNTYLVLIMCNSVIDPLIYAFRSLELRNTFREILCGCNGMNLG
reported.property: log10 of Ki (log10 of the value in nM)

| smiles | study.target | log10 of Ki |
| --- | --- | --- |
| CNC(=O)[C@H](Cc1ccc2ccccc2c1)NC(=O)[C@H](CCCN=C(N)N)NC(=O)[C@H](N)Cc1ccccc1 | Melanocortin receptor 3 (Homo sapiens) | 4.35 |
| N=C(N)NCCC[C@@H]1C[C@@H](OCc2ccc3ccccc3c2)CN1C(=O)[C@@H](Cc1ccccc1)NC(=O)[C@@H]1Cc2ccccc2CN1 | Melanocortin receptor 3 (Homo sapiens) | 3.91 |
| N=C(N)NCCC[C@H]1C[C@@H](OCc2ccc3ccccc3c2)CN1C(=O)[C@@H](Cc1ccccc1)NC(=O)[C@@H]1Cc2ccccc2CN1 | Melanocortin receptor 3 (Homo sapiens) | 1.93 |
| N=C(N)NCCC[C@@H]1C[C@@H](OCc2ccc3ccccc3c2)CN1C(=O)[C@@H](Cc1ccccc1)NC(=O)[C@@H]1CCCCN1 | Melanocortin receptor 3 (Homo sapiens) | 3.87 |
| CNC(=O)[C@H](Cc1ccc2ccccc2c1)NC(=O)[C@H](CCCN=C(N)N)NC(=O)[C@@H](Cc1ccccc1)NC(=O)[C@H](Cc1c[nH]cn1)NC(C)=O | Melanocortin receptor 3 (Homo sapiens) | 3.08 |
| NC(N)=NCCC[C@H]1C[C@@H](OCc2ccc3ccccc3c2)CN1C(=O)[C@@H](Cc1ccccc1)NC(=O)[C@@H]1CCCN1 | Melanocortin receptor 3 (Homo sapiens) | 2.34 |
| CC(=O)N[C@@H](Cc1c[nH]cn1)C(=O)N[C@H](Cc1ccccc1)C(=O)N1C[C@H](OCc2ccc3ccccc3c2)C[C@H]1CCCN=C(N)N | Melanocortin receptor 3 (Homo sapiens) | 3.86 |
| N=C(N)NCCNC(=O)[C@H]1C[C@@H](OCc2ccc3ccccc3c2)CN1C(=O)[C@@H](Cc1ccccc1)NC(=O)[C@@H]1Cc2ccccc2CN1 | Melanocortin receptor 3 (Homo sapiens) | 3.64 |
| NC(N)=NCCNC(=O)[C@H]1C[C@@H](OCc2ccc3ccccc3c2)CN1C(=O)[C@@H](Cc1ccccc1)NC(=O)C1CCNCC1 | Melanocortin receptor 3 (Homo sapiens) | 3.50 |
| CC(=O)N[C@@H](Cc1c[nH]cn1)C(=O)N[C@H](Cc1ccccc1)C(=O)N1C[C@@H](OCc2ccc3ccccc3c2)C[C@H]1CCCN=C(N)N | Melanocortin receptor 3 (Homo sapiens) | 3.29 |
| CC(=O)N[C@@H](Cc1ccc(O)cc1)C(=O)N[C@H](Cc1ccccc1)C(=O)N1C[C@H](OCc2ccc3ccccc3c2)C[C@@H]1CCCN=C(N)N | Melanocortin receptor 3 (Homo sapiens) | 1.62 |
| NC(N)=NCCNC(=O)[C@H]1C[C@@H](OCc2ccc3ccccc3c2)CN1C(=O)[C@@H](Cc1ccccc1)NC(=O)[C@@H](N)Cc1c[nH]cn1 | Melanocortin receptor 3 (Homo sapiens) | 2.85 |
| NC(N)=NCCC[C@H]1C[C@@H](OCc2ccc3ccccc3c2)CN1C(=O)[C@@H](Cc1ccccc1)NC(=O)CCc1ccccc1 | Melanocortin receptor 3 (Homo sapiens) | 2.61 |

----------
pKi: −log10 of the molar value.
Record set of pKi for target or system Melanocyte-stimulating hormone receptor (Homo sapiens, UniProt Q01726).

| smiles | pKi |
| --- | --- |
| N=C(N)NCCC[C@H]1C[C@H](OCc2ccc3ccccc3c2)CN1C(=O)[C@@H](Cc1ccccc1)NC(=O)[C@@H]1CCCCN1 | 6.90 |
| NC(N)=NCCC[C@H]1C[C@@H](OCc2ccc3ccccc3c2)CN1C(=O)[C@@H](Cc1ccccc1)NC(=O)[C@@H]1CCCN1 | 7.26 |
| CC(=O)N[C@@H](CCC(N)=O)C(=O)N[C@H](Cc1ccccc1)C(=O)N1C[C@H](OCc2ccc3ccccc3c2)C[C@@H]1C(=O)NCCN=C(N)N | 6.05 |

Ref: ChEMBL document CHEMBL1138948
